experiment: Total clearance in Fischer rat at 10 mg/kg, iv; type: ADME, organism-based; parameters: dose 10 mg/kg, route intravenous; conditions: in vivo
Metric Name: clearance
A complete answer gives the number and then names the unit.

-- ask Look up and report measured clearance for this entry: CCc1cc(F)c2ccccc2c1CNC(=O)c1c(OC)cc(O)c2c1OC1=CC([O-])=C(C(C)=O)C(=O)[C@]12C.[K+]
-- reply 6.98 mL/min/kg

----------
molecular target: Peroxisome proliferator-activated receptor gamma (Homo sapiens, UniProt P37231); assay: Modulation of human GAL4-fused PPARgamma LBD expressed in COS7 cells co-expressing pG5luc by luciferase reporter gene based transactivation assay; type: cell-based, COS-7
Metric Name: pEC50
Scale note: pEC50 = -log10(concentration in M).

-- ask Look up and report measured pEC50 for this entry: CCc1cc(F)c2ccccc2c1CNC(=O)c1c(OC)cc(O)c2c1OC1=CC(O)=C(C(C)=O)C(=O)[C@]12C
-- reply 7.92

----------
assay: Terminal half life in Fischer rat at 10 mg/kg, iv; format: ADME, organism-based; set-up: dose 10 mg/kg, route intravenous; conditions: in vivo, read-out: beta t1/2 (converted)
Metric Name: half-life (h)
Just the number please, in h, no unit attached.

-- ask Look up and report measured half-life for this entry: CCc1cc(F)c2ccccc2c1CNC(=O)c1c(OC)cc(O)c2c1OC1=CC([O-])=C(C(C)=O)C(=O)[C@]12C.[K+]
-- reply 4

----------
Target: Peroxisome proliferator-activated receptor gamma (Homo sapiens)
Sequence (whole entry): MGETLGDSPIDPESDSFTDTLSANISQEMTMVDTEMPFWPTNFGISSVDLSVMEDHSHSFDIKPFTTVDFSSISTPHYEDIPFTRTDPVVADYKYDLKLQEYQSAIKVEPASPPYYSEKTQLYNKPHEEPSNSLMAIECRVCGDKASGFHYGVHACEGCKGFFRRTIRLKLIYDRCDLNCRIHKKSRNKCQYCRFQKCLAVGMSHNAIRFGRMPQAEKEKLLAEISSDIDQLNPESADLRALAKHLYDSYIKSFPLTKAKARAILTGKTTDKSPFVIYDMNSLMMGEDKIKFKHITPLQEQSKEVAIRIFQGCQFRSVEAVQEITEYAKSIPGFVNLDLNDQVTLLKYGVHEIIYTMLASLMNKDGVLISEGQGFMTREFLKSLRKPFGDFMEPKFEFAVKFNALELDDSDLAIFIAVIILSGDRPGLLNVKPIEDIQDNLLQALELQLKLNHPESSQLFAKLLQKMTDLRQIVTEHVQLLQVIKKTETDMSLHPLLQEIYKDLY
Assay: Modulation of full-length human pSG5-fused PPARgamma expressed in MG-63 cells co-expressing pGV-P2-PPRE after 24 hrs by luciferase reporter gene based transactivation assay relative to 5-(4-{[6-(4-hydroxy-3,5-dimethylphenoxy)-1-methyl-1H-benzimidazol- 2-yl]methoxy}benzyl)-1,3-thiazolidine-2,4-dione
Format: cell-based
For each entry below, report its Emax value.
Just the number please, in %, no unit attached.

-- ask GET Emax where system = Peroxisome proliferator-activated receptor gamma (Homo sapiens) and item = COc1cc(O)c2c(c1C(=O)NCc1c(C)ccc3cc(Cl)ccc13)OC1=CC(O)=C(C(C)=O)C(=O)[C@]12C
-- reply 26

-- ask GET Emax where system = Peroxisome proliferator-activated receptor gamma (Homo sapiens) and item = CCc1cc(F)c2ccccc2c1CNC(=O)c1c(OC)cc(O)c2c1OC1=CC(O)=C(C(C)=O)C(=O)[C@]12C
-- reply 38

-- ask GET Emax where system = Peroxisome proliferator-activated receptor gamma (Homo sapiens) and item = CCCCc1ccc2ccccc2c1CNC(=O)c1c(OC)cc(O)c2c1OC1=CC(O)=C(C(C)=O)C(=O)[C@]12C
-- reply 22

-- ask GET Emax where system = Peroxisome proliferator-activated receptor gamma (Homo sapiens) and item = COc1cc(O)c2c(c1C(=O)NCc1c(C)ccc3ccc(F)cc13)OC1=CC(O)=C(C(C)=O)C(=O)[C@]12C
-- reply 40

-- ask GET Emax where system = Peroxisome proliferator-activated receptor gamma (Homo sapiens) and item = COc1cc(O)c2c(c1C(=O)NCc1c(C)ccc3c(Cl)cccc13)OC1=CC(O)=C(C(C)=O)C(=O)[C@]12C
-- reply 59

-- ask GET Emax where system = Peroxisome proliferator-activated receptor gamma (Homo sapiens) and item = CCCc1ccc2ccccc2c1CNC(=O)c1c(OC)cc(O)c2c1OC1=CC(O)=C(C(C)=O)C(=O)[C@]12C
-- reply 37
